protocolSummary: soluble on expression in E. coli; label from the status in PepcDB or PDB records

{"querySequence": "MSLELLIPQLEFLNEEGAQAEVWALSRIFLDTLVKETGQKVKAIFPDAGAAALLKYQWTDAEFKCASLSDRKPVDVEDEVVVMIIPDHQMVESVERIASQLSDDPIRPLVMWNPRLVSGDVGVGFNVRNLRRNFLSTFTTVYSMRPLPTGAVFRQYPGKWKVFYDDPKRPNRYLLARELVSRPDATDIEIIFGGGDEQSDEAPSLMNNVMGVFSSVSRFMRVISKEGHHHHHH", "soluble on expression in E. coli": "not soluble"}
{"querySequence": "GPGSMDYPKKNQAAPAEGQTVRLTITSRNAKAVESVTSQLLTRARDEKVTIHGPVRLPTRTLKITTRKTPCGNGTNTWDTFELKIYKRIIDLHAPTEQVKKITSFTMESGVDVSITILDR", "soluble on expression in E. coli": "soluble"}
{"querySequence": "GPGSMKKFMLNTKASLGLVGEKTVDEDYNKRSASLKALNEALNEYSTAMDKAKHAMREVMHSLGKASKAFEKLNSGSCIPEPLKDFSEDFKKAIEHLQQYALQEFMNTMETTVIKTGHAIRADYEECVRVDQQRQKTVNEYDVYRSAVDKKETEYAKKGKDLKESKTYEEDTKTRDELKADYEASDKLFKSSHDALESNVVSKGRLCMREFFCCTSEFLSALSTEMKRLHEKSLLLGA", "soluble on expression in E. coli": "not soluble"}
{"querySequence": "MSSTIPALPGPEPGPGPGPAGPVSLTERRKAETRMEIARAAARLFVGQGLRATRAEDIARAAGVAPRTFYRYFATKEEAVAPLYALGAERWVRAVREAPAELSPPEALERAVRHTLTPGAGVSAPSWEWARTLIRLAESSPALRKVWAEVCHSTERGLVQALAARMSGGDDNVAVRLAASPRLHFAAAVAGASVRVAAEHWASSSPQGARSPLEQALLNLEVLRGFAWEAGPAEEG", "soluble on expression in E. coli": "not soluble"}
{"querySequence": "MVSFKRYELPPLPYNYNALEPYIIEEIMKLHHQKHHNTYVKGANAALEKIEKHLKGEIQIDVRAVMRDFSFNYAGHIMHTIFWPNMAPPGKGGGTPGGRVADLIEKQFGGFEKFKALFSAAAKTVEGVGWGVLAFDPLTEELRILQVEKHNVLMTAGLVPILVIDVWEHAYYLQYKNDRGSYVENWWNVVNWDDVEKRLEQALNNAKPLYLLPQ", "soluble on expression in E. coli": "soluble"}
{"querySequence": "MPRVWKFGDQINTDDILPGKYAPFMVGEDRFHLYAFAHLRPEFAKEVRPGDILVFGRNAGLGSSREYAPEALKRLGIRAIIAKSYARIFFRNLVNLGIVPFESEEVVDALKDGDEVELDLESGVLTRGEERFLLRPPPPFLLEALKEGSLLDYYKKHGRFPGE", "soluble on expression in E. coli": "soluble"}
{"querySequence": "MIVLPRRLSDEVADRVRALIDEKNLEAGMKLPAERQLAMQLGVSRNSLREALAKLVSEGVLLSRRGGGTFIRWRHDTWSEQNIVQPLKTLMADDPDYSFDILEARYAIEASTAWHAAMRATPGDKEKIQLCFEATLSEDPDIASQADVRFHLAIAEASHNIVLLQTMRGFFDVLQSSVKHSRQRMYLVPPVFSQLTEQHQAVIDAIFAGDADGARKAMMAHLSFVHTTMKRFDEDQARHARITRLPGEHNEHSREKNA", "soluble on expression in E. coli": "soluble"}

###

protocolSummary: soluble on expression in E. coli; label from the status in PepcDB or PDB records
recordedEndpoint: soluble on expression in E. coli

{"querySequence": "MGSDKIHHHHHHMDVIDAVNRRMSVRAFKPDPVDAGLIRDLLEAAARAPSGGNLQPWRVQVVGGAPLEALKAAMLQRVASPDPTEYDVYPANLWEPLRSRRFQVGEDMYGALGIPREDKLQRLQWFANNGQGFGAPVQLFFSIDRRCGPPQWSDVGMLMQTFMLLAVERGLDTCPQEFWSHYNKLVDEHVGLPEGHMLFSGMALGYRDADAPVNNFRSRRAPFEEWAELKGF", "experimentalResult": "not soluble"}
{"querySequence": "MSSLTKQFVITQSVKNVSSIADGGEHVTPSEIHYGTEWYMRIKRDNGFMSFGLYCPMTGKTTNWSIVADIRVELMPLTGMWKSVECECKIAKSPSLISEVLRSTIMPWGRMMTNYVVDDALMIEVFVTIKSMTGFERPYNLRSFDESMEEFSDVVLLVGEKKFYVLRKYLAAQSKYFKALLLGSFEEGKSSEVTLTSIDPNDFQFFLEVLYGDSAINDLTVEGILHIADMYDTPMVVRKCEEFLIKGTKLPAKKKLQMAFRYKMENFMVLFFGNIQRKVFNFFRETTTLN", "experimentalResult": "not soluble"}
{"querySequence": "MEPPKPEYAPTAHSRYNSQYFYWLFLDLFHLEPSMKLFPSLATLTLCSLMSAPLLAAEQAPELTGCAAKRQAIMNQIEQAKAHGNSNQQAGLERALSEVTAHCTDASLKKERENKVLEAKHEVSRRQADLEKAMKKGDSEKINKRKDKLAESRKELQQALDELDKLEHHHHHH", "experimentalResult": "not soluble"}
{"querySequence": "MGHHHHHHSHMSIPSSQYGFVFNKQSGLKLRNDLPVHKPKAGQLLLKVDAVGLCHSDLHVIYEGLDCGDNYVMGHEIAGTVAAVGDDVINYKVGDRVACVGPNGCGGCKYCRGAIDNVCKNAFGDWFGLGYDGGYQQYLLVTRPRNLSRIPDNVSADVAAASTDAVLTPYHAIKMAQVSPTSNILLIGAGGLGGNAIQVAKAFGAKVTVLDKKKEARDQAKKLGADAVYETLPESISPGSFSACFDFVSVQATFDVCQKYVEPKGVIMPVGLGAPNLSFNLGDLALREIRILGSFWGTTNDLDDVLKLVSEGKVKPVVRSAKLKELPEYIEKLRNNAYEGRVVFNP", "experimentalResult": "soluble"}
{"querySequence": "MKRSSVFSFLVAFLLVAGCSHKMDNKTVAGDVSAKTVQTAPVTTEPAPEKEEPKQEPAPVVEEKPAVESGTIIASIYFDFDKYEIKESDQETLDEIVQKAKENHMQVLLEGNTDEFGSSEYNQALGVKRTLSVKNALVIKGVEKDMIKTISFGETKPKCAQKTRECYKENRRVDVKLMK", "experimentalResult": "not soluble"}
{"querySequence": "MSLDSIVNAYEESDVLDPRTDAERPSVPPVIKPVDLGPVHVETPVVLSPMAGVTNWPFRVICESYGPDGLYVAEMITARALVARNPKALRLCRFAPSEKIRSLQLYGVNPSIVEQAAKIVIDENMADHVDLNFGCPVPKVTRRGGGSALPWKTDLFREIIQRVVKVCDAANVPVTAKIRVGIDHEHETFLEAGHIAQEEGCKAVTLHARTTAEYYGGHSDWSRIGELVSELDIPVFGNGDIWGANDALAMVAETGCAGVAIGRGCQGRPWLFADIKNAFAGSDERVDPTLGDVCRVIERHAELLTEFYDEGHHHHHH", "experimentalResult": "not soluble"}
{"querySequence": "MGSDKIHHHHHHMQKPHLLITSAGRRAKLVEYFVKEFKTGRVSTADCSPLASALYMADQHYIVPKIDEVEYIDHLLTLCQDEGVTALLTLIDPELGLLAQATERFQAIGVTVIVSPYAACELCFDKYTMYEYCLRQGIAHARTYATMASFEEALAAGEVQLPVFVKPRNGSASIEVRRVETVEEVEQLFSKNTDLIVQELLVGQELGVDAYVDLISGKVTSIFIKEKLTMRAGETDKSRSVLRDDVFELVEHVLDGSGLVGPLDFDLFDVAGTLYLSEINPRFGGGYPHAYECGVNFPAQLYRNLMHEINVPQIGQYLDDIYMLKHDTVTLISAAELQKIKR", "experimentalResult": "not soluble"}
{"querySequence": "MSLFPILETDRLILRQITDQDAEAIFACFSNDEVTRYYGLENMESIEQAISMIQTFAALYQEKRGIRWGIERRDTKELIGTIGFHALAQKHRRAEIGYEIIPEHWRNGFASEVISKVVSYGFSALGLSRIGAVVFTDNEASNRLLLKMGFQKEGVLRQYMYSKWDSIEGGSHHHHHH", "experimentalResult": "soluble"}
{"querySequence": "MAHHHHHHMFMCRVHARARYLYILQNGSVEEMTALLTKLRAAVPSERLIIEHRPQNIGYAAAVNEGYRVALQKPHAEVPFIGVFNCDVYFERRYFGRYIPVVYKMLAPDAARIRALEEVVEQEERAARAAGRQTLRASVATTPGLSISMLLPDRIRYSSFAEQQDEFKGHVGMFYYETKSMCAFLVSRLALLVGGFLDENFYPAYFEDYDWQFRLANLGFKTFTGSSAQFGGFFHRMGGNIRVINKGPAGKSISYDMAAIRVERMLNAKPGIDYGETKWAWHREALVAMSATPFPQLGFIVPLDVWVLDAARHQLIIDIGTGRRPSVEMSNTYNVSLLSSLRRFALADGKDFWGSGIITTEPDWRK", "experimentalResult": "not soluble"}
{"querySequence": "MGSDKIHHHHHHMSIKSDKWIRRMAAQHGMIEPFEPNPIRQVNGEKIVSYGTSSYGYDIRCADEFKVFTNINSTIVDPKNFDPNSFVEFKNDFCIIPPNSFALARTVEYFRIPRSVLTVCLGKSTYARCGIIVNVTPFEPEWEGYVTLEFSNTTPLPAKIYAGEGCAQVLFFESDEECEISYKDRGGKYQGQVGVTLPKI", "experimentalResult": "not soluble"}
{"querySequence": "MKRIGILTSGGDAPGMNAAVRAVTRVAIANGLEVFGIRYGFAGLVAGDIFPLESEDVAHLINVSGTFLYSARYPEFAEEEGQLAGIEQLKKHGIDAVVVIGGDGSYHGALQLTRHGFNSIGLPGTIDNDIPYTDATIGYDTACMTAMDAIDKIRDTASSHHRVFIVNVMGRNCGDIAMRVGVACGADAIVIPERPYDVEEIANRLKQAQESGKDHGLVVVAEGVMTADQFMAELKKYGDFDVRANVLGHMQRGGTPTVSDRVLASKLGSEAVHLLLEGKGGLAVGIENGKVTSHDILDLFDESHRGDYDLLKLNADLSR", "experimentalResult": "soluble"}

# credit: the DeepSol protein solubility set
